These entries and their values trace back to patent US20100256177A1.

tested on: PA1 (ovary) human tumor cell line; assay: three day MTT cytotoxicity assay, PA1 ovarian; format: cell-based; conditions: PA1 ovarian cells, 72 hours
Readout Name: IC50 (μg/mL) of Flavoperereine derivatives in human tumor cell lines, PA1 Ovarian (µg/mL)
API: value field is a number in µg/mL; no unit string.

[[record]]
mol = "BrCCCOc1ccc2c3[nH]c4ccccc4c3cc[n+]2c1.[O-][Cl+3]([O-])([O-])[O-]"
obs_value = 2


Would you kindly look at the next entry?
q: Tell me IC50 (μg/mL) of Flavoperereine derivatives in human tumor cell lines, PA1 Ovarian reported for CCCCOc1ccc2[n+](c1)CCc1c-2[nH]c2ccccc12.[Br-]
a: 4.7

* * *

test system: Hep2 (larynx) human tumor cell line; test: three day MTT cytotoxicity assay, Hep2 larynx; format: cell-based; settings: Hep2 larynx cells, 72 hours
Each entry falls into one class according to its IC50 (μg/mL) of Flavoperereine derivatives in human tumor cell lines, Hep2 Larynx; the ranges are bottom: < 3 µg/mL; middle: ≥ 3 µg/mL and < 8 µg/mL; top: ≥ 8 µg/mL

As a guide, the following entries are already answered.
[[record]]
molecule = "CCCCOc1ccc2[n+](c1)CCc1c-2[nH]c2ccccc12.[Br-]"
assigned_label = "middle"

[[record]]
molecule = "CCCCOc1ccc2c3[nH]c4ccccc4c3cc[n+]2c1.[Br-]"
assigned_label = "bottom"

[[record]]
molecule = "CCOc1ccc2[n+](c1)CCc1c-2[nH]c2ccccc12"
assigned_label = "top"


q: Exercise: read the entry Fc1ccc(COc2ccc3c4[nH]c5ccccc5c4cc[n+]3c2)cc1.[O-][Cl+3]([O-])([O-])[O-] and state which class it falls under.
a: middle

q: Exercise: read the entry Fc1ccc(COc2ccc3[n+](c2)CCc2c-3[nH]c3ccccc23)cc1.[O-][Cl+3]([O-])([O-])[O-] and state which class it falls under.
a: top

q: Exercise: read the entry Oc1ccc2[n+](c1)CCc1c-2[nH]c2ccccc12 and state which class it falls under.
a: top

q: Exercise: read the entry c1ccc(COc2ccc3c4[nH]c5ccccc5c4cc[n+]3c2)cc1 [Compound 28, 3-benzyloxyindolo[2,3-a]quinolizinium] and state which class it falls under.
a: bottom

q: Exercise: read the entry BrCCCOc1ccc2c3[nH]c4ccccc4c3cc[n+]2c1.[O-][Cl+3]([O-])([O-])[O-] and state which class it falls under.
a: bottom

q: Exercise: read the entry Brc1ccc(COc2ccc3[n+](c2)CCc2c-3[nH]c3ccccc23)cc1.[Br-] and state which class it falls under.
a: top

* * *

system: MCF7 (breast) human tumor cell line; assay: three day MTT cytotoxicity assay, MCF7 breast; format: cell-based; settings: MCF7 breast cells, 72 hours
Readout Name: IC50 (μg/mL) of Flavoperereine derivatives in human tumor cell lines, MCF7 Breast

[[record]]
mol = "Oc1ccc2[n+](c1)CCc1c-2[nH]c2ccccc12"
obs_value = ">100 µg/mL"

[[record]]
mol = "Brc1ccc(COc2ccc3[n+](c2)CCc2c-3[nH]c3ccccc23)cc1.[Br-]"
obs_value = ">100 µg/mL"


q: Write IC50 (μg/mL) of Flavoperereine derivatives in human tumor cell lines, MCF7 Breast of Fc1ccc(COc2ccc3c4[nH]c5ccccc5c4cc[n+]3c2)cc1.[O-][Cl+3]([O-])([O-])[O-] ; system used: MCF7 (breast) human tumor cell line
a: <1 µg/mL
